B1: LINE1-mini (parent)
chain: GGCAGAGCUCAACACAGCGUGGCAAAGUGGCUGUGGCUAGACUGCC

Variants of: B1
Assay: self-cleavage, relative activity (ratio to wild type); higher = more cleavage; in vitro, sequencing; the parent is a self-cleaving ribozyme
measurementType: self-cleavage
// return a plain number; no unit text

Input G44C C46G . Output self-cleavage: 0.08

// self-cleavage lookup, variant = C13G G27A , result: 0.27

For A14C G19C the variant record lists self-cleavage as 0.03

variant C3G U32C , self-cleavage observed: 0.14

Entry G19C A26U ; self-cleavage = 0.37

// recorded self-cleavage for G2U C13G : 0.02

Measured self-cleavage, G21U C42A : 0.23

response.value for A24G G44C (field: self-cleavage) = 0.66

Just so you know, measured self-cleavage for C31A came out at 0.15

Input C18G C37G . Output self-cleavage: 0.06

The recorded self-cleavage for entry U20G G21U equals 0.97

Item: G1A A26C | self-cleavage: 0.78

Lookup result for C8U U34A ; measured self-cleavage: 0.1

For record A11G C15A the listed self-cleavage is 0.02

# self-cleavage (variant: A11G G17A ) is 0.04

Please fill in: self-cleavage reported for U28A C42A = 0.12

Quick note, self-cleavage for C10G C31U landed at 0.05

Lab note: measured self-cleavage of G17U A24G was 0.09

For record G29A C31G the listed self-cleavage is 0.39

C8U G44C has a reported self-cleavage of 0.08

Value of measured self-cleavage for the entry G2U G17A : 0.03

# self-cleavage of G1U A12C = 0.02

Lab book: self-cleavage of C8U A25U noted as 0.18

The variant listed as G1U C15G has a reported self-cleavage of 0.04

Short answer for C8G G27C : self-cleavage was 0.1

Per the record, G30A U32A has self-cleavage of 0.13

The recorded self-cleavage for entry G5U U34C equals 0.07

What the record says about A25C G40U : self-cleavage is 0.08

According to the records, this variant G7C G21A displays self-cleavage of 0.2

Form field self-cleavage, entry G7U G27U : 0.08

// sample A4G C45G , its self-cleavage was 0.37

Sample G19U G22C ; self-cleavage observed: 0.5

// field: self-cleavage; key: A4U C23A ; value = 0.16

Lab note: measured self-cleavage of C23U A39U was 0.89

In plain terms, G27U G44A has a documented self-cleavage of 0.43

self-cleavage recorded for this variant, G40C U43A , is 0.06

GET /value?item= G1U A4G &field=self-cleavage returns 0.25

self-cleavage reported for this variant A16C C45U : 0.07

Briefly, self-cleavage measured for A4U G5U : 0.12

Query G30U A41U yields self-cleavage of 0.64

Item: G7A U38C | self-cleavage: 0.1

Sample G2C G22A ; self-cleavage observed: 0.15

Measured self-cleavage of C15G U38G : 0.03

Briefly, self-cleavage measured for A4G G5A : 0.15

Short answer for G27U C46U : self-cleavage was 1.05

Form field self-cleavage, entry A14G G40C : 0.09

The reported self-cleavage of the variant C3U G33C was 0.07

Lab note: G5C U28A gave self-cleavage of 0.1

Input A4G A39U . Output self-cleavage: 0.33

self-cleavage for G5C A26G is 0.05

# variant G22A G29C ; its self-cleavage = 0.21

Documented self-cleavage of A14U G35U : 0.12

# self-cleavage of U34G A41C = 0.04

Entry A14C G27C ; self-cleavage = 0.07

Recorded self-cleavage (variant A11C C45G ): 0.02

Item: A6G G36C | self-cleavage: 0.09

Entry A24G G33U ; self-cleavage = 0.08

Just so you know, measured self-cleavage for C37U C42U came out at 0.1

What the record says about G19A G44A : self-cleavage is 0.75

Entry U9A A25U , self-cleavage reported as 0.15

The variant listed as C8A C42A has a reported self-cleavage of 0.29

Form field self-cleavage, entry G1C G35A : 0.03

Form: variant = G36C A39G ; self-cleavage = 0.07

Recorded self-cleavage (variant U32A C45G ): 0.07

Sure, the documented self-cleavage for G36A C45G is 0.13

The measured self-cleavage associated with A4U A6C reads 0.06

Reported self-cleavage of A25G C46G : 0.78

# variant A24U G29C ; its self-cleavage = 0.58

Entry under test: A14G C37A . Its self-cleavage was 0.07

Reported self-cleavage for G2U G35A was 0.05

// A14C G35C : self-cleavage value = 0.04

// A24U G44C : self-cleavage value = 0.67
